Reference for the values: patent US20250332173A1

# Tested on: MYB
# experiment-description: HiBiT protein abundance assay, MYB HiBiT K562 cell line
# Assay type: cell-based, human
# test-parameters: HiBiT K562 cell line, 24 hours, top dose 10 μM; read-out: Effect on protein abundance, MYB (IC50 category)
pIC50: −log10 of the molar value.
compounds and their reported pIC50

compound: Cc1cn2cc(-c3ccc4c(=O)n(C5CCNC6(CC6)C5)ncc4c3)cc(Cl)c2n1 (stereo not shown)
target-or-test-system: MYB
pIC50: 5.00 to 6.00
//
compound: Cc1cn2cc(-c3ccc4c(=O)n(C5CCNCC5)ccc4n3)cc(F)c2n1
target-or-test-system: MYB
pIC50: > 7.00
//
compound: Cn1cc2cc(-c3ncc4c(=O)n(C5CCNCC5)ccc4n3)cc(F)c2n1
target-or-test-system: MYB
pIC50: > 7.00
//
compound: Cc1cn2cc(-c3ccc4c(=O)n([C@@H]5CCCNC5)ccc4c3)cc(F)c2n1 (single isomer, unassigned)
target-or-test-system: MYB
pIC50: 6.00 to 7.00
//
compound: COc1cc(-c2cc(F)c3c(=O)n(C4CCNCC4)cnc3c2)cnn1
target-or-test-system: MYB
pIC50: < 5.00
//
compound: Cc1c(O)c(-c2ncc3c(=O)n([C@@H]4C[C@H]5C[C@@H]4CN5)ccc3n2)cc2cn(C)nc12 (stereo in doubt)
target-or-test-system: MYB
pIC50: 5.00 to 6.00
//
compound: Cc1cn2nc(-c3cc(F)c4c(=O)n(C5CCN(C)C6(CC6)C5)ncc4c3)cc(C)c2n1 (stereo not shown)
target-or-test-system: MYB
pIC50: > 7.00
